% SIRP alpha Inhibition for assorted binders
- system_under_test: T1, recombinant human CD47 extracellular domain (ECD), His-tagged, dimer (human, UniProt Q08722 19-141)
- T1 construct: Dimeric fraction of the same His-tagged ECD; also called His-tagged CD47-ECD dimer protein
- assay_info: MSD; CD47-ECD dimer binding to captured SIRP alpha-Fc, mAb 10 µg/ml
measurement_label: % SIRP alpha Inhibition

>>> result("C47B244 (antibody, V domains shown, human IgG2sigma/kappa) VH: EVQLVQSGAEVKKPGESLKISCKGSGYSFDDYWIGWVRQMPGKGLEWMGIIYPGDSDTRYSPSFQGQVTISADKSISTAYLQWSSLKASDTAVYYCARVGRFASHQLDYWGQGTLVTVSS VL: EIVLTQSPATLSLSPGERATLSCRASQSVSNRLAWYQQKPGQAPRLLIYGASNRATGIPARFSGSGSGTDFTLTISSLEPEDFAVYYCQQGRSWPFTFGQGTKVEIK")
"99.8%"
>>> result("C47B223 (antibody, V domains shown, human IgG2sigma/kappa) VH: EVQLVQSGAEVKKPGESLKISCKGSGYSFTDYWIGWVRQMPGKGLEWMGIIYPGDSDTRYSPSFQGQVTISADKSISTAYLQWSSLKASDTAVYYCARVGRFASHQLDYWGQGTLVTVSS VL: EIVLTQSPATLSLSPGERATLSCRASQSVGSRLAWYQQKPGQAPRLLIYWASTRATGIPARFSGSGSGTDFTLTISSLEPEDFAVYYCQQGAYWPFTFGQGTKVEIK")
"100%"
